These data points were gathered from PubChem BioAssay (NCI).

- Assay remarks: NCI Yeast Anticancer Drug Screen. Data for the mlh1 rad18 strain (AID 175)
- Assay context: S. cerevisiae mlh1 rad18 strain growth inhibition; at 50.0 µM; stronger effect = higher value
About 79,000 compounds went through this panel and 15% of them were active in at least one assay; those are over-represented in the sample as a whole.
I'd appreciate it if you could supply growth inhibition values for the items below.
Numbers only, in %.

These recorded examples may help you get a feel for the data.
O=C(Nc1ccccc1)Oc1ccc(Cl)cc1Cc1ccccc1; 99.8
Cc1n(Cc2ccccc2)nc2sc(N)n[n+]12; -6.95
CC(C)(CS(C)(=O)=O)C(=O)O; 4.65
CCOC(=O)C(O)Cc1ccc(N)cc1 (stereo not given); 2.85
CCOC(=O)NC(CC)CO (stereo not given); -6.9

// batch mode: one growth inhibition value per listed entry
1. CNC1C(CO)OC(n2cnc3c(=O)[nH]cnc32)C1O (stereo not given)
2. CN(C=O)/C=C/c1cc(O)ccc1O
3. Cn1c(=O)c2c(nc(Cl)n2Cc2ccccc2)n(C)c1=O
4. CCCCCCNc1ncnc2c1cnn2C
5. CN(C1c2ccccc2Oc2ccccc21)S(=O)(=O)c1ccc([N+](=O)[O-])cc1

Outgoing:
1. 13.6
2. 5.4
3. 21.4
4. 3.4
5. 40.1

###

- Assay remarks: NCI Yeast Anticancer Drug Screen. Data for the rad50 strain (AID 155);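 also: 0% = growth of vehicle-only cultures of the same strain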
- Assay context: S. cerevisiae rad50 strain growth inhibition; at 50.0 µM
Compounds without any hit were thinned out: in the full panel of roughly 79,000, 15% have a hit. Active and inactive are the calls of the source. Cut-off read from the data, not from the text of the source: active = growth inhibition above about 70%; inactive = the rest.
Your response should consist of one outcome taken from yes = active, no = inactive

COC1CCC(/C(C#N)=C/C2CCC(NC(C)=O)CC2)CC1 (stereo unspecified); no

Incoming: # lookup: test call for `Cc1cc(S(=O)(=O)Nc2nc3ccccc3[nH]2)c(S)cc1Cl`
Outgoing: no

Incoming: Hi, do you know how `Cc1c2ccn3c(=O)c4ccccc4cc3c2c(C)c2c1[nH]c1ccccc12` came out in this test?
Outgoing: no

Incoming: Test call for this compound, please: `CC(=O)Nc1ccc(/C=N/Nc2c3ccccc3nc3ccccc23)cc1`
Outgoing: no

Incoming: Assay result, entry CC1CC(C)OC(C)(c2ccccc2)O1 (stereo unspecified) — outcome?
Outgoing: no

Incoming: Recorded test outcome, item `CNC(=O)c1cc(OC)ccc1O`
Outgoing: no

Incoming: What did the test return for `COc1ccc(-c2cn3c(nc4ccccc43)c(C)n2)cc1` ?
Outgoing: no

Incoming: Tell me the recorded outcome of this test for `COc1ccccc1NC(=O)/C(Cc1nc2ccc([N+](=O)[O-])cc2[nH]c1=O)=N\NC(=O)C[N+](C)(C)C` .
Outgoing: no

Incoming: Check the results log: what was the call for `O=c1cc2n(c(=O)n1Cc1ccccc1)CCC2` ?
Outgoing: no

Incoming: Test call for this compound, please: COCC(O)CN1CCN(c2ccccc2OC)CC1 (stereo unspecified)
Outgoing: no

Incoming: Please indicate how the test categorized `CN(C)CCOC(=O)C(C)(C)Sc1ccc(Cl)cc1` .
Outgoing: no

Incoming: Which outcome was entered for the compound `CC(=O)c1c(O)ccc2c(C)cc(=O)oc12` in this test?
Outgoing: no

###

- Assay remarks: NCI Yeast Anticancer Drug Screen. Data for the bub3 strain (AID 167)
- Assay context: S. cerevisiae bub3 mutant strain, at 50.0 µM, stronger effect = higher value
The panel holds about 79,000 compounds, 15% with a hit somewhere; the sample as a whole holds those more often.
For each of the compounds below, state its growth inhibition.
One number for each entry, in %.

COC(=O)C1(CC(=O)c2ccc(Cl)cc2)NC(=S)NC(=O)C1C#N (stereo unspecified); -10.9
CCC/C=N/NC(=O)c1ccc(OC)cc1; 5.85
CCC(C(O)c1ccccc1)[N+](=O)[O-] (stereo unspecified); -11.1
CC1=[N+]([O-])c2ccccc2C(=O)C1=O; 41.1

Lab note: each compound below needs its growth inhibition filled in.
1. O=C1CSC(c2ccc(Cl)c(Cl)c2)N1c1nncs1 (stereo unspecified)
2. CC(=O)Nc1c(C(=N)C#N)ncn1CCO
3. O=C1NC(=O)C(=NC2C(=O)NC(=O)NC2=O)C(=O)N1
4. Brc1cc(Br)cc(-c2nnc(-c3cccc4ccccc34)o2)c1
5. CCC(CC)(CC#N)C1CCCCC1
6. NC1=NC(=S)CS1
7. COc1ccc(C(CC(=O)O)c2ccccc2)cc1 (stereo unspecified)
8. CCCCCCCCCCCCCCCCCC

Outgoing:
14.7
-3.65
26.1
10.2
-3.15
16.7
-29.8
0.25
